These data points were gathered from patent US6960574B2.

Tested on: receptor labeled by the radioiodinated analogue of 1 (4, [125I]-YLFQPQRF-NH2); neuropeptide FF receptor
Assay: Competitive radioligand binding against 4 ([125I]Y8F-amide)
Details: mixture-based positional scanning; difference from averaged radioligand displacement of whole library (0); about 80 a.u. = 10-fold change in Ki
Peptide text beside a SMILES is read from it. * marks the point of attachment. Dansyl = CN(C)c1cccc2c(S(=O)(=O)*)cccc12
REPORTED PROPERTY: Relative Binding Index (RBI) (a.u.)

Would you please look over these solved cases?
>  <COMPOUND>
CN(C)c1cccc2c(S(=O)(=O)N3CCC[C@H]3C(=O)N[C@@H](Cc3ccccc3)C(=O)N[C@@H](CCCNC(=N)N)C(N)=O)cccc12 [Dansyl-PFR-amide] (Dansyl-Pro-Phe-Arg-NH2)

>  <Relative Binding Index (RBI) (a.u.)>
−49

$$$$
>  <COMPOUND>
CN(C)c1cccc2c(S(=O)(=O)N[C@@H](Cc3ccccc3)C(=O)NCC(=O)N[C@@H](CCCNC(=N)N)C(N)=O)cccc12 [Dansyl-FGR-amide] (Dansyl-Phe-Gly-Arg-NH2)

>  <Relative Binding Index (RBI) (a.u.)>
15

$$$$
>  <COMPOUND>
C[C@H](NC(=O)[C@H](Cc1c[nH]c2ccccc12)NS(=O)(=O)c1cccc2c(N(C)C)cccc12)C(=O)N[C@@H](CCCNC(=N)N)C(N)=O [Dansyl-WAR-amide] (Dansyl-Trp-Ala-Arg-NH2)

>  <Relative Binding Index (RBI) (a.u.)>
−40

$$$$
>  <COMPOUND>
CN(C)c1cccc2c(S(=O)(=O)N[C@@H](Cc3c[nH]c4ccccc34)C(=O)N[C@@H](Cc3c[nH]c4ccccc34)C(=O)N[C@@H](CCCNC(=N)N)C(N)=O)cccc12 [Dansyl-WWR-amide] (Dansyl-Trp-Trp-Arg-NH2)

>  <Relative Binding Index (RBI) (a.u.)>
17

$$$$
>  <COMPOUND>
CC(C)[C@H](NC(=O)[C@H](CC(=O)O)NS(=O)(=O)c1cccc2c(N(C)C)cccc12)C(=O)N[C@@H](CCCNC(=N)N)C(N)=O [Dansyl-DVR-amide] (Dansyl-Asp-Val-Arg-NH2)

>  <Relative Binding Index (RBI) (a.u.)>
−10

$$$$

P = CN(C)c1cccc2c(S(=O)(=O)NCC(=O)N[C@@H](CC(N)=O)C(=O)N[C@@H](CCCNC(=N)N)C(N)=O)cccc12 [Dansyl-GNR-amide] (Dansyl-Gly-Asn-Arg-NH2)
Q = CC(C)[C@H](NS(=O)(=O)c1cccc2c(N(C)C)cccc12)C(=O)N[C@@H](CCCNC(=N)N)C(=O)N[C@@H](CCCNC(=N)N)C(N)=O [Dansyl-VRR-amide] (Dansyl-Val-Arg-Arg-NH2)
## Task Larger number for Relative Binding Index (RBI): P , or Q ? Lab log: write the label of the selected item as the result.
## Result P
(P: 26 a.u., Q: −6 a.u.)

====

System: receptor labeled by the radioiodinated analogue of 1 (4, [125I]-YLFQPQRF-NH2); neuropeptide FF receptor
Assay: Competitive radioligand binding against 4 ([125I]Y8F-amide)
Conditions: mixture-based positional scanning; difference from averaged radioligand displacement of whole library (0); about 80 a.u. = 10-fold change in Ki
Description: Additionally, three-dimensional (3-D) molecular models of the known smaller-size neuropeptide FF antagonists 3 and 3a were constructed and their low-energy conformations were obtained in the AMBER force-field [Weiner, et al., J. Comput. Chem. 1986, 7, […].] by molecular dynamics calculations involving simulated annealing. A semi-empirical quantum chemical method with the PM3 parameterization [Stewart, J. Comput. Chem. 1989, 10, 209-220.] was used for the final geometry optimization. […]
Peptide text beside a SMILES is read from it. * marks the point of attachment. Dansyl = CN(C)c1cccc2c(S(=O)(=O)*)cccc12
REPORTED PROPERTY: Relative Binding Index (RBI) (a.u.)

>  <MOLECULE>
CSCC[C@H](NC(=O)[C@H](CCC(=O)O)NS(=O)(=O)c1cccc2c(N(C)C)cccc12)C(=O)N[C@@H](CCCNC(=N)N)C(N)=O [Dansyl-EMR-amide] (Dansyl-Glu-Met-Arg-NH2)

>  <OBSERVED>
17

$$$$

1 = CN(C)c1cccc2c(S(=O)(=O)N[C@@H](CC(N)=O)C(=O)N[C@@H](Cc3ccc(O)cc3)C(=O)N[C@@H](CCCNC(=N)N)C(N)=O)cccc12 [Dansyl-NYR-amide] (Dansyl-Asn-Tyr-Arg-NH2)
2 = CN(C)c1cccc2c(S(=O)(=O)N3CCC[C@H]3C(=O)N[C@@H](Cc3c[nH]c4ccccc34)C(=O)N[C@@H](CCCNC(=N)N)C(N)=O)cccc12 [Dansyl-PWR-amide] (Dansyl-Pro-Trp-Arg-NH2)
3 = CN(C)c1cccc2c(S(=O)(=O)N[C@@H](Cc3c[nH]cn3)C(=O)N[C@@H](CO)C(=O)N[C@@H](CCCNC(=N)N)C(N)=O)cccc12 [Dansyl-HSR-amide] (Dansyl-His-Ser-Arg-NH2)
## Task Kindly order the items shown according to Relative Binding Index (RBI), from the highest value down. Write the labels in rank order as requested.
## Result 3, 1, 2
(3: 37 a.u., 1: 12 a.u., 2: −39 a.u.)

====

System: receptor labeled by the radioiodinated analogue of 1 (4, [125I]-YLFQPQRF-NH2); neuropeptide FF receptor
Assay: Competitive radioligand binding against 4 ([125I]Y8F-amide)
Settings: mixture-based positional scanning; difference from averaged radioligand displacement of whole library (0); about 80 a.u. = 10-fold change in Ki
Peptide text beside a SMILES is read from it. * marks the point of attachment. Dansyl = CN(C)c1cccc2c(S(=O)(=O)*)cccc12
REPORTED PROPERTY: Relative Binding Index (RBI) (a.u.)

>  <MOLECULE>
CN(C)c1cccc2c(S(=O)(=O)N[C@@H](Cc3ccccc3)C(=O)N[C@@H](CC(N)=O)C(=O)N[C@@H](CCCNC(=N)N)C(N)=O)cccc12 [Dansyl-FNR-amide] (Dansyl-Phe-Asn-Arg-NH2)

>  <Relative Binding Index (RBI) / a.u.>
11

$$$$
>  <MOLECULE>
CC(C)[C@H](NS(=O)(=O)c1cccc2c(N(C)C)cccc12)C(=O)N[C@@H](Cc1c[nH]c2ccccc12)C(=O)N[C@@H](CCCNC(=N)N)C(N)=O [Dansyl-VWR-amide] (Dansyl-Val-Trp-Arg-NH2)

>  <Relative Binding Index (RBI) / a.u.>
4

$$$$
>  <MOLECULE>
C[C@@H](O)[C@H](NC(=O)[C@@H]1CCCN1S(=O)(=O)c1cccc2c(N(C)C)cccc12)C(=O)N[C@@H](CCCNC(=N)N)C(N)=O [Dansyl-PTR-amide] (Dansyl-Pro-Thr-Arg-NH2)

>  <Relative Binding Index (RBI) / a.u.>
−42

$$$$

a = CC[C@H](C)[C@H](NS(=O)(=O)c1cccc2c(N(C)C)cccc12)C(=O)N[C@H](C(=O)N[C@@H](CCCNC(=N)N)C(N)=O)[C@@H](C)O [Dansyl-ITR-amide] (Dansyl-Ile-Thr-Arg-NH2)
b = CC[C@H](C)[C@H](NS(=O)(=O)c1cccc2c(N(C)C)cccc12)C(=O)N[C@@H](CCSC)C(=O)N[C@@H](CCCNC(=N)N)C(N)=O [Dansyl-IMR-amide] (Dansyl-Ile-Met-Arg-NH2)
## Task Of a and b , whose reported Relative Binding Index (RBI) is numerically smaller? Reply briefly: the label of your chosen item.
## Result b

====

System: receptor labeled by the radioiodinated analogue of 1 (4, [125I]-YLFQPQRF-NH2); neuropeptide FF receptor
Test: Competitive radioligand binding against 4 ([125I]Y8F-amide)
Details: mixture-based positional scanning; difference from averaged radioligand displacement of whole library (0); about 80 a.u. = 10-fold change in Ki
Square brackets hold non-standard residues; d marks the D form. Peptide text beside a SMILES is read from it. * marks the point of attachment. ξ: configuration not given here. Dansyl = CN(C)c1cccc2c(S(=O)(=O)*)cccc12; ξL = CC(C)CC(N)C(=O)O
REPORTED PROPERTY: Relative Binding Index (RBI) (a.u.)

Some molecules with known Relative Binding Index (RBI) results, for comparison:
>  <MOLECULE>
CC(C)C[C@H](NS(=O)(=O)c1cccc2c(N(C)C)cccc12)C(=O)N[C@@H](Cc1cnc[nH]1)C(=O)N[C@@H](CCCNC(=N)N)C(N)=O [Dansyl-LHR-amide] (Dansyl-Leu-His-Arg-NH2)

>  <REPORTED PROPERTY>
Relative Binding Index (RBI)

>  <OBSERVED>
−38

$$$$
>  <MOLECULE>
CC[C@H](C)[C@H](NC(=O)[C@H](CC(N)=O)NS(=O)(=O)c1cccc2c(N(C)C)cccc12)C(=O)N[C@@H](CCCNC(=N)N)C(N)=O [Dansyl-NIR-amide] (Dansyl-Asn-Ile-Arg-NH2)

>  <REPORTED PROPERTY>
Relative Binding Index (RBI)

>  <OBSERVED>
19

$$$$
>  <MOLECULE>
CN(C)c1cccc2c(S(=O)(=O)NCC(=O)N[C@@H](CCC(=O)O)C(=O)N[C@@H](CCCNC(=N)N)C(N)=O)cccc12 [Dansyl-GER-amide] (Dansyl-Gly-Glu-Arg-NH2)

>  <REPORTED PROPERTY>
Relative Binding Index (RBI)

>  <OBSERVED>
25

$$$$
>  <MOLECULE>
CN(C)c1cccc2c(S(=O)(=O)N[C@@H](Cc3ccc(O)cc3)C(=O)N[C@@H](Cc3c[nH]c4ccccc34)C(=O)N[C@@H](CCCNC(=N)N)C(N)=O)cccc12 [Dansyl-YWR-amide] (Dansyl-Tyr-Trp-Arg-NH2)

>  <REPORTED PROPERTY>
Relative Binding Index (RBI)

>  <OBSERVED>
16

$$$$

A = CN(C)c1cccc2c(S(=O)(=O)N[C@@H](CCC(=O)O)C(=O)N[C@@H](CCCNC(=N)N)C(=O)N[C@@H](CCCNC(=N)N)C(N)=O)cccc12 [Dansyl-ERR-amide] (Dansyl-Glu-Arg-Arg-NH2)
B = CN(C)c1cccc2c(S(=O)(=O)NCC(=O)N[C@@H](Cc3c[nH]c4ccccc34)C(=O)N[C@@H](CCCNC(=N)N)C(N)=O)cccc12 [Dansyl-GWR-amide] (Dansyl-Gly-Trp-Arg-NH2)
C = CC(C)CC(NC(=O)[C@H](Cc1ccccc1)NS(=O)(=O)c1cccc2c(N(C)C)cccc12)C(=O)N[C@@H](CCCNC(=N)N)C(N)=O (stereo partly drawn) [Dansyl-FLR-amide] (Dansyl-Phe-[ξL]-Arg-NH2)
D = CN(C)c1cccc2c(S(=O)(=O)N[C@@H](Cc3ccc(O)cc3)C(=O)N[C@@H](CCCCN)C(=O)N[C@@H](CCCNC(=N)N)C(N)=O)cccc12 [Dansyl-YKR-amide] (Dansyl-Tyr-Lys-Arg-NH2)
## Task Reorder the items by Relative Binding Index (RBI), least to greatest. Rank them, then answer with their labels in that order.
## Result C, D, A, B
(C: 1 a.u., D: 5 a.u., A: 15 a.u., B: 34 a.u.)
